- condition: Ebola virus entry reporter assay, green channel fluorescence
Results with a measured potency or affinity are listed apart. The source made the active and inactive calls.
measured.parameter: outcome

smi=CC(C)CN(C[C@@H](O)[C@H](Cc1ccccc1)NC(=O)O[C@@H]1CCOC1)S(=O)(=O)c1ccc(N)cc1 observed_measurement=inactive
smi=N[C@@H](Cc1cc(I)c(Oc2ccc(O)c(I)c2)c(I)c1)C(=O)O observed_measurement=inactive
smi=CCOC(=O)[C@H](CCc1ccccc1)N[C@@H](C)C(=O)N1[C@H](C(=O)O)C[C@H]2CCCC[C@@H]21 observed_measurement=inactive

----------
- experiment: qHTS for Inhibitors of the Functional Ribonucleoprotein Complex (vRNP) of Lymphocytic Choriomeningitis Arenaviruses (LCMV): Viability assay - alamar blue signal for LCMV Primary Screen (AID 1347085); note: nearly all actives have a fitted effect of over 80% in size
- condition: alamar blue viability counter-screen, LCMV vRNP screen cells; series mostly up to 57.5 µM
Records with an inconclusive call do not appear. Activity calls are given as the source filed them. Calls come from the whole dose curve; tested in HEK293 reporter line.
measured.parameter: outcome

compound=O=S(=O)(O)CCS measured_parameter=outcome observed_measurement=inactive
compound=Cc1c(C(=O)NCCO)[n+](=O)c2ccccc2n1[O-] measured_parameter=outcome observed_measurement=inactive
compound=O=C(O)/C=C\C(=O)O measured_parameter=outcome observed_measurement=inactive
compound=Cc1cc(CC(=O)O)c(C)n1-c1ccc(Cl)cc1 measured_parameter=outcome observed_measurement=inactive
compound=OC1(c2ccccc2)CCNCC1 measured_parameter=outcome observed_measurement=inactive
compound=CCCCCCCCCC(=O)O[C@H]1CC[C@H]2[C@@H]3CCC4=CC(=O)CC[C@@H]4[C@H]3CC[C@]12C measured_parameter=outcome observed_measurement=inactive
compound=CN(C)CCc1c[nH]c2ccc(Cn3cncn3)cc12 measured_parameter=outcome observed_measurement=inactive
compound=CCS(=O)(=O)CCn1c([N+](=O)[O-])cnc1C measured_parameter=outcome observed_measurement=inactive
compound=Nc1ncnc2c1ncn2Cc1c(F)cccc1Cl measured_parameter=outcome observed_measurement=inactive
compound=CCN[C@H](C)Cc1cccc(C(F)(F)F)c1 measured_parameter=outcome observed_measurement=inactive
compound=CCOc1cc(CC(=O)N[C@@H](CC(C)C)c2ccccc2N2CCCCC2)ccc1C(=O)O measured_parameter=outcome observed_measurement=inactive
compound="CC1(COc2ccc(CC3SC(=O)NC3=O)cc2)CCCCC1 (configuration not stated)" measured_parameter=outcome observed_measurement=inactive

----------
- tested.on: Glucagon-like peptide 1 receptor (Homo sapiens) (UniProt P43220)
- Sequence (P43220 whole entry, looked up): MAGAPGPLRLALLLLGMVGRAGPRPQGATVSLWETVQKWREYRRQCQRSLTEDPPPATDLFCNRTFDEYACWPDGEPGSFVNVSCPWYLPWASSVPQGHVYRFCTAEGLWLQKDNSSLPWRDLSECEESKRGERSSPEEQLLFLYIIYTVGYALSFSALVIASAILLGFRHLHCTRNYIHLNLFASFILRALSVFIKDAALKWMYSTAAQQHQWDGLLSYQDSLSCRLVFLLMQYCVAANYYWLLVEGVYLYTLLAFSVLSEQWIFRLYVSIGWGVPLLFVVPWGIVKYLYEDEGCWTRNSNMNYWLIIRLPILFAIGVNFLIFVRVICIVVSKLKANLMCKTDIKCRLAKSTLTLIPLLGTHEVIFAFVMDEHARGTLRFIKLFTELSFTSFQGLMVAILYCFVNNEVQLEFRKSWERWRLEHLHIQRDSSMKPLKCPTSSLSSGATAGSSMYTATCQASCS
- experiment: qHTS of GLP-1 Receptor Agonists: LOPAC Validation (AID 624148);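 note: luminescence from a luciferase reporter switched on by cAMP; higher luminescence signal means agonism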
- condition: GLP-1R agonist cell assay; series mostly up to 46.1 µM
Inconclusive results are not listed. The source made the active and inactive calls. Calls come from the whole dose curve; as a rule, active = well fitted curve in the direction sought with a large enough effect; inconclusive = small, poorly fitted or top-dose-only effect, or another doubt; inactive = no such curve, though single readings can be large or run the other way.
measured.parameter: outcome

compound=C=C(C)[C@H]1CN[C@H](C(=O)O)[C@H]1CC(=O)O tested_on="Glucagon-like peptide 1 receptor (Homo sapiens) (UniProt P43220)" measured_parameter=outcome observed_measurement=inactive
compound=COc1ccc2c(c1OC)C(=O)O[C@H]2[C@@H]1c2cc3c(cc2CCN1C)OCO3 tested_on="Glucagon-like peptide 1 receptor (Homo sapiens) (UniProt P43220)" measured_parameter=outcome observed_measurement=inactive
compound="CN1C(=O)CCS(=O)(=O)C1c1ccc(Cl)cc1 (stereo not drawn)" tested_on="Glucagon-like peptide 1 receptor (Homo sapiens) (UniProt P43220)" measured_parameter=outcome observed_measurement=inactive
compound=O=C(CCCN1CCC2(CC1)C(=O)NCN2c1ccccc1)c1ccc(F)cc1 tested_on="Glucagon-like peptide 1 receptor (Homo sapiens) (UniProt P43220)" measured_parameter=outcome observed_measurement=inactive
compound=CC(C)c1cccc(C(C)C)c1O tested_on="Glucagon-like peptide 1 receptor (Homo sapiens) (UniProt P43220)" measured_parameter=outcome observed_measurement=inactive
compound=O=C(O)CCCc1ccc(N(CCCl)CCCl)cc1 tested_on="Glucagon-like peptide 1 receptor (Homo sapiens) (UniProt P43220)" measured_parameter=outcome observed_measurement=inactive
compound="CCC1(c2ccc(N)cc2)CCC(=O)NC1=O (stereo not drawn)" tested_on="Glucagon-like peptide 1 receptor (Homo sapiens) (UniProt P43220)" measured_parameter=outcome observed_measurement=inactive
compound=Cc1ncsc1CCCl tested_on="Glucagon-like peptide 1 receptor (Homo sapiens) (UniProt P43220)" measured_parameter=outcome observed_measurement=inactive
